Each entry below carries its reported Emax.
- tested.system: RET(KD: 658-1114 G810R) (Homo sapiens, UniProt P07949, G810R)
- Construct: 658-1114; expressed in transfected cells; host or cells: 293T.165 (293T cells, generated in-house)
- Sequence (P07949 658-1114 G810R): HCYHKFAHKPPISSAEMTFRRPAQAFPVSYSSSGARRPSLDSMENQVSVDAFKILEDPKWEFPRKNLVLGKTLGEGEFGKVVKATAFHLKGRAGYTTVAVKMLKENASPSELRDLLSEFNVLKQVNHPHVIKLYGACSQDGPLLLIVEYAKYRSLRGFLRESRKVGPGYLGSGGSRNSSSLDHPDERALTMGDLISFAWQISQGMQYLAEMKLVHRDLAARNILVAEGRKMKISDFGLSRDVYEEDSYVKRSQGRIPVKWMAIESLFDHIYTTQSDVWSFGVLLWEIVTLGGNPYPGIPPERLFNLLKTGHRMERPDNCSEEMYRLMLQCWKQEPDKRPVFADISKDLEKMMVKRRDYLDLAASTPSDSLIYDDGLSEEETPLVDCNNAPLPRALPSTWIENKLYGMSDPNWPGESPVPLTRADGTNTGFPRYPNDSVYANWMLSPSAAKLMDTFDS
- assay.explanation: HiBiT-Degradation, RET G810R degradation assay (Nano-Glo HiBiT Lytic), 293T.165 cells
- Assay type: cell-based
- reported.conditions: 6.0 hours, % remaining protein, read-out: 293T.165 RET(KD: 658-1114 G810R) 6.0 hours (Emax)

CCC1(C(=O)NC2CCC2)CCN(c2ccc(-c3nc(-c4cnn(C5CCN([C@H]6CCN(c7ccc(N[C@H]8CCC(=O)NC8=O)cc7F)CC6(F)F)CC5)c4)cn4ncc(C#N)c34)cn2)CC1 (single isomer, unassigned) [Compound 191] :: < 30%

Quick note, Emax for CCC1(C(=O)NC(C)C)CCN(c2ccc(-c3cc(-c4ccc(N5CCN(C(=O)CN6CCC(c7ccc8c(N9CCC(=O)NC9=O)nn(C)c8c7)CC6)CC5)cc4)cn4ncc(C#N)c34)cn2)CC1 [Compound 64] landed at < 30%

====

- tested.system: RET (658-1114) (Homo sapiens, UniProt P07949)
- Construct: 658-1114; expressed in transfected cells; host or cells: 293T.144 (293T cells, generated in-house)
- assay.explanation: HiBiT-Degradation, RET wild-type degradation assay (Nano-Glo HiBiT Lytic), 293T.144 cells
- Type: cell-based
measured.attribute: 293T.144 RET (658-1114) 6.0 hours (IP) [nM]

COc1cc(N2CCN(C3CCC(n4cc(-c5cn6ncc(C#N)c6c(-c6ccc(N7CC8COCC(C7)N8Cc7ccccn7)nc6)n5)cn4)CC3)CC2)c(F)cc1NC1CCC(=O)NC1=O (centres unmarked) [Compound 205] :: ++++ (<50 nM = ++++)
CC(C)(C)OC(=O)N1[C@@H]2COC[C@H]1CN(c1ccc(-c3nc(-c4cnn([C@H]5CC[C@@H](N6CCN(c7ccc(NC8CCC(=O)NC8=O)cc7F)CC6)CC5)c4)cn4ncc(C#N)c34)cn1)C2 (single isomer, unassigned) [Compound 159] :: ++++ (<50 nM = ++++)

====

- tested.system: RET(KD: 658-1114 G810R) (Homo sapiens, UniProt P07949, G810R)
- Construct: 658-1114; expressed in transfected cells; host or cells: 293T.165 (293T cells, generated in-house)
- assay.explanation: HiBiT-Degradation, RET G810R degradation assay (Nano-Glo HiBiT Lytic), 293T.165 cells
- Type: cell-based
- reported.conditions: 6.0 hours, half-maximal degradation concentration, read-out: 293T.165 RET(KD: 658-1114 G810R) 6.0 hours (DC50)
Each entry below carries its reported DC50.

Example entries and their recorded answers appear below.
COc1ccc(CN2C3COCC2CN(c2ccc(-c4nc(-c5cnn(C6CCC(N7CCC(c8ccc(NC9CCC(=O)NC9=O)cc8Cl)CC7)CC6)c5)cn5ncc(C#N)c45)cn2)C3)cn1 (stereo not drawn) :: < 100 nM
CCC1(C(=O)NC(C)C)CCN(c2ccc(-c3cc(-c4cnn([C@H]5CC[C@H](N6CCC(c7ccc(N[C@H]8CCC(=O)NC8=O)cc7F)CC6)CC5)c4)cn4ncc(C#N)c34)cn2)CC1 (single isomer, unassigned) :: < 50 nM
COc1cc(N2CCN([C@H]3CC[C@H](n4cc(-c5cn6ncc(C#N)c6c(-c6ccc(N7CC8COCC(C7)N8C(=O)OC(C)(C)C)nc6)n5)cn4)CC3)CC2)c(F)cc1NC1CCC(=O)NC1=O (relative stereo) :: < 100 nM

Quick note, DC50 for N#Cc1cnn2cc(-c3cnn([C@H]4CC[C@@H](N5CCN(c6ccc(N[C@@H]7CCC(=O)NC7=O)cc6F)CC5)CC4)c3)nc(-c3ccc(N4CC5CC(C4)N5C(=O)c4c(F)cccc4F)nc3)c12 (single isomer, unassigned) landed at < 50 nM

Quick note, DC50 for N#Cc1cnn2cc(-c3cnn(C4CCN(C(=O)CN5CCC(c6ccc(NC7CCC(=O)NC7=O)cc6F)CC5)CC4)c3)nc(-c3ccc(N4CCN(C(=O)Cc5ccc(F)cn5)CC4)nc3)c12 (stereo not drawn) landed at < 100 nM

Quick note, DC50 for COc1ccc(CN2C3CC2CN(c2ccc(-c4nc(-c5cnn([C@H]6CC[C@@H](N7CCC(c8cc9c(cc8F)c(N8CCC(=O)NC8=O)nn9C)C(F)(F)C7)CC6)c5)cn5ncc(C#N)c45)cn2)C3)cn1 (relative stereo) landed at < 50 nM

Quick note, DC50 for CN(Cc1ccc(-c2cn3ncc(C#N)c3c(-c3ccc(N4CCN(Cc5ccccn5)CC4)nc3)n2)cc1)C(=O)CN1CCC(c2ccc(NC3CCC(=O)NC3=O)cc2)CC1 (stereo not drawn) landed at < 100 nM

Quick note, DC50 for CCC1(C(=O)NC2CCC2)CCN(c2ccc(-c3nc(-c4cnn([C@H]5C[C@](F)(CN6CCN(c7ccc(N[C@H]8CCC(=O)NC8=O)cc7F)CC6)C5)c4)cn4ncc(C#N)c34)cn2)CC1 landed at < 50 nM

Quick note, DC50 for N#Cc1cnn2cc(-c3cnn(C4CCN(C(=O)CN5CCC(c6ccc(NC7CCC(=O)NC7=O)cc6F)CC5)CC4)c3)nc(-c3ccc(N4CCC(Cc5ccccn5)CC4)nc3)c12 (stereo not drawn) landed at < 50 nM
